These entries and their values trace back to patent US20230303540A1.

// IC50 lookup, one value per entry
# Test Target: GST-tagged truncated human mutant G2019S LRRK2 (Homo sapiens, UniProt Q5S007, G2019S)
# Test: LRRK2 G2019S Km ATP LanthaScreen assay
# Type: biochemical
# Condition Description: 134 μM ATP (Km ATP), LRRKtide substrate, mean IC50 values; read-out: LRRK2 pIC50 (converted)
Units required after the number.

- Compound: "C[C@H]1CN(C)CCN1c1cc2nc(Nc3cnn(C4(C)CC4)c3Cl)ncc2cc1Cl [Ex-4.36]"
  IC50: "6.06 nM"
- Compound: "Cc1cc2cnc(Nc3cnn(C45CC(F)(C4)C5)c3Cl)nc2cc1N1CCNCC1 [Ex-5.15]"
  IC50: "25.1 nM"

Given the compound OC1COCC12CCN(c1cc3nc(Nc4cnn(C5CC5(F)F)c4Cl)ncc3cc1Cl)CC2 (single isomer, unassigned) [Ex-3.56] and test system GST-tagged truncated human mutant G2019S LRRK2 (Homo sapiens, UniProt Q5S007, G2019S), the measured IC50 is 3.56 nM

The measured IC50 that OC1CN(C2CCN(c3cc4nc(Nc5cnn(CC(F)F)c5Cl)ncc4cc3Cl)CC2)C1 [Ex-1.22] showed for GST-tagged truncated human mutant G2019S LRRK2 (Homo sapiens, UniProt Q5S007, G2019S) is 6.94 nM

---

# Test Target: GST-tagged truncated human mutant G2019S LRRK2 (Homo sapiens, UniProt Q5S007, G2019S)
# Test: LRRK2 G2019S Km ATP LanthaScreen assay
# Assay type: biochemical
# Condition Description: 134 μM ATP (Km ATP), LRRKtide substrate, mean IC50 values; read-out: LRRK2 pIC50 (converted)
# Protocol: Unless otherwise noted, all reactions are magnetically stirred. Unless otherwise noted, when diethyl ether is used in the experiments described below, it is Fisher ACS certified material and is stabilized with BHT. Unless otherwise noted, “concentrated” and/or “solvent removed under reduced pressure” means evaporating the solvent from a solution or mixture using a rotary evaporator or vacuum pump. […] The IC50 values reported herein were measured as follows. […]
Quantity Kind: IC50 (nM)
Numbers only here, please. The scale is nM.

- Compound: "CC1(N2CCN(c3cc4nc(Nc5cnn(CC6C[C@H](F)[C@@H](F)C6)c5)ncc4cc3Cl)CC2)COC1"
  Readout Value: 8.88

Per the records, this compound ( CC(C)Nc1ccc2cnc(Nc3cnn(C4CCN(C5(C)COC5)CC4)c3)nc2c1 ) has IC50 equal to 9.16

Entry CCn1ncc(Nc2ncc3ccc(N4C(=O)OCC4C4CC4)cc3n2)c1C (single isomer, unassigned) [Ex-7.15] , IC50 reported as 9.26

---

Reported IC50 by item:
# Test Target: GST-tagged truncated human mutant G2019S LRRK2 (Homo sapiens, UniProt Q5S007, G2019S)
# Test: LRRK2 G2019S Km ATP LanthaScreen assay
# Format: biochemical
# Condition Description: 134 μM ATP (Km ATP), LRRKtide substrate, mean IC50 values; read-out: LRRK2 pIC50 (converted)
The figure you give is taken to be in nM; do not add the unit.

Observe how each entry below is paired with its result.
- Molecule: "CC1CN(c2cc3nc(Nc4cnn(C5CC5)c4Cl)ncc3cc2Cl)CCN1C1COCC1O (single isomer, unassigned) [Ex-12.6]"
  IC50, nM: 13.6
- Molecule: "CC1(O)CCN(c2cc3nc(Nc4cnn(CC(F)F)c4Cl)ncc3cc2Cl)C1 (centres unmarked)"
  IC50, nM: 4.71
- Molecule: "CC1(n2ncc(Nc3ncc4cc(Cl)c(N5CCC(N6CC(F)(F)C6)CC5)cc4n3)c2Cl)CC1"
  IC50, nM: 2.02
- Molecule: "FC12CC(n3ncc(Nc4ncc5cc(Cl)c(N6CCNCC6)cc5n4)c3Cl)(C1)C2"
  IC50, nM: 2.11

Would you kindly look at the next entry?
IC50 for CC1(N2CCN(c3cc4nc(Nc5cnn(C67CC(F)(C6)C7)c5Cl)ncc4cc3Cl)CC2)COCC1O (single isomer, unassigned) is 1.69

---

# Test Target: GST-tagged truncated human mutant G2019S LRRK2 (Homo sapiens, UniProt Q5S007, G2019S)
# Test: LRRK2 G2019S Km ATP LanthaScreen assay
# Format: biochemical
# Condition Description: 134 μM ATP (Km ATP), LRRKtide substrate, mean IC50 values; read-out: LRRK2 pIC50 (converted)
Collected IC50 values appear next to each entry.
Quick note: give the figure in nM, leave out the unit.

# example entries with known answers
- Molecule: "CC(C)(O)Cn1ncc(Nc2ncc3cc(Cl)c(N4CCN(C5(C)COC5)CC4)cc3n2)c1Cl"
  Readout Value: 2.76
- Molecule: "CC1(O)CCN(c2cc3nc(Nc4cnn(C5CC5)c4Cl)ncc3cc2Cl)C1 (stereo not drawn)"
  Readout Value: 9.77
- Molecule: "CCNc1cc2nc(Nc3cnn(C4CCN(C5(C)COC5)CC4)c3Cl)ncc2cc1Cl"
  Readout Value: 23.5

Briefly, IC50 measured for C[C@]1(O)[C@@H]2CC[C@H]1CN(c1cc3nc(Nc4cnn(C5CC5(F)F)c4Cl)ncc3cc1Cl)C2 (single isomer, unassigned) : 23

Sure, the documented IC50 for CC1(N2CCN(c3cc4nc(Nc5cnn(CC(F)F)c5)ncc4cc3Cl)CC2)COC1 is 5.68

Just so you know, measured IC50 for CC1(N2CCN(c3cc4nc(Nc5cnn(C6COC6)c5Cl)ncc4cc3Cl)CC2)COC1 came out at 1.87
